test system: Malme-3M; experiment: NCI tumour cell line growth inhibition, 48 h
Calls of active or inactive are those of the source. No stated cut-off is given here; in the data, active = GI50 up to about 1.1 µM and inactive = higher.
Catalogue of compounds with associated GI50

Below, each entry is followed by its recorded GI50 result.
>>> test_value("CCCCCn1cc2c3c(cccc31)C1C=C(C)CN(C)[C@@H]1C2.Cc1ccc(C(=O)OC(C(=O)O)C(OC(=O)c2ccc(C)cc2)C(=O)O)cc1 (configuration not stated)")
"2.56 µM (inactive)"
>>> test_value("O=[N+]([O-])c1ccc2[nH]nc(OCc3ccccc3Cl)c2c1")
"98.9 µM (inactive)"
>>> test_value("Cc1ccc(/C=N/n2c(-c3ccc(C)cc3)n[nH]c2=O)cc1")
"80.5 µM (inactive)"

Then there is this compound:
Ask | Looking for the measured GI50 of CC(=O)c1c(-c2ccco2)c(C#N)c(=S)n(C2OC(CO)C(O)C(O)C2O)c1C (configuration not stated) , can you help?
Reply | > 100 µM (inactive)

====

test system: IGROV-1; test: NCI tumour cell line growth inhibition, 48 h
Calls of active or inactive are those of the source. Rule as the data show it: active = GI50 up to about 1.1 µM and inactive = higher.
Select the matching outcome among active, inactive

Ask | What outcome does the record of this test show for Cc1ccc2[nH]c3c(C)c4ccncc4c(C)c3c2c1 ?
Reply | active

Ask | Given COc1cc2cnc3c4ccccc4ccc3c2cc1OC , state the outcome it received in this test.
Reply | inactive

Ask | Per the records of this test, what outcome belongs to Oc1nnc(CNc2ccc(Cl)cc2Cl)c2ccccc12 ?
Reply | inactive

Ask | Which outcome did this test record for the molecule C=C1C(=O)O[C@H]2C/C(C)=C/CC/C(C)=C/CC[C@@](C)(O)[C@@H](I)C[C@@H]12 ?
Reply | inactive

====

tested on: SR; test: NCI tumour cell line growth inhibition, 48 h
Calls of active or inactive are those of the source. Cut-off read from the data, not from the text of the source: active = GI50 up to about 1.1 µM and inactive = higher.
The following compounds are listed with their measured GI50 values.

>>> test_value("Cc1cc(C)c(NC(=S)NC(=O)c2ccccc2)cc1C")
"37.7 µM (inactive)"

Ask | # lookup: GI50 of CCC/C=C1\CCC(CN(C)C)C1=O (centres undefined)
Reply | 2.49 µM (inactive)

Ask | Which measured GI50 value corresponds to O=C1NC(Cc2c[nH]c3ccccc23)C(=O)N2C(C3CCCCC3)c3[nH]c4ccccc4c3C[C@@H]12 (some centres undefined) ?
Reply | 7.45 µM (inactive)

====

tested on: Malme-3M; experiment: NCI tumour cell line growth inhibition, 48 h
Active and inactive are the calls of the source. Cut-off read from the data, not from the text of the source: active = GI50 up to about 1.1 µM and inactive = higher.
OUTCOME_MEASURE: GI50

Below: 4 compounds and their reported GI50.
>>> test_value("Cc1nc2c(c(=O)[nH]1)S/C(=C(/C#N)c1nc3ccccc3[nH]1)N2c1ccccc1")
"> 100 µM (inactive)"
>>> test_value("O=P(O)(CCP(=O)(O)c1ccccc1)c1ccccc1")
"> 100 µM (inactive)"
>>> test_value("Cc1ccc(NP(=O)(Oc2ccccc2)N(CCCl)CCCl)cc1 (stereo not drawn)")
"92.7 µM (inactive)"
>>> test_value("COC(=O)[C@@H]1C(=O)O[C@@H](c2ccc(OC)c(OC)c2OC)[C@@H]1C(=O)OC.COC(=O)[C@H]1C(=O)O[C@@H](c2ccc(OC)c(OC)c2OC)[C@@H]1C(=O)OC")
"> 100 µM (inactive)"

Ask | Find the recorded GI50 belonging to CCC(C)C1NC(=O)C(NC(=O)c2c3nc4c(C(=O)NC5C(=O)NC(C(C)CC)C(=O)N6CCCC6C(=O)N(C)CC(=O)N(C)C(C(C)C)C(=O)OC5C)ccc(C)c4oc-3c(C)c(=O)c2O)C(C)OC(=O)C(C(C)C)N(C)C(=O)CN(C)C(=O)C2CCCN2C1=O (stereo not drawn) and report it.
Reply | 1.98 µM (inactive)

Ask | Fill blank: measured GI50 of the compound C1CCC(N=C2N(C3CCCCC3)C(=NC3CCCCC3)N2C2CCCCC2)CC1 is ____.
Reply | > 100 µM (inactive)

Ask | Dear colleague, I am looking for the recorded GI50 of the following compound: CCOC(=O)CNC(=O)OCc1ccccc1
Reply | > 100 µM (inactive)

Ask | Any idea what GI50 was measured for O=C(Cc1ccccc1)NNc1nc(NNC(=O)c2ccncc2)nc(Nc2cccc(Cl)c2)n1 ?
Reply | > 10 µM (inactive)

====

system: SR; test: NCI tumour cell line growth inhibition, 48 h
Active and inactive are the calls of the source. Rule as the data show it: active = GI50 up to about 1.1 µM and inactive = higher.
OUTCOME_MEASURE: GI50

>>> test_value("C/C(=C\\COc1cc(O)c2c(c1)C(=O)c1cc(C)cc(O)c1C2=O)CCC1OC1(C)C (stereo unspecified)")
"13.9 µM (inactive)"
>>> test_value("CC1(C)C2CCC1(C)C(NC(=O)CCN1CCOCC1)C2 (stereo unspecified)")
"> 100 µM (inactive)"
>>> test_value("COC1CC2C3/C(=N/Nc4ccc([N+](=O)[O-])cc4[N+](=O)[O-])CCC2(C)C3C1 (stereo unspecified)")
"37.1 µM (inactive)"
>>> test_value("CC(=O)NC(CCCCN(Cc1ccccc1)C(=O)NCCCl)C(=O)NCc1ccccc1 (stereo unspecified)")
"> 100 µM (inactive)"
>>> test_value("COc1ccc(/C=C/C(=O)C(C)C)cc1")
"25.2 µM (inactive)"
>>> test_value("COc1ccc(/C(Cl)=C(\\c2ccc(OCCN(C)C)cc2)c2ccc(OC(=O)C(C)(C)C)cc2)cc1")
"7.69 µM (inactive)"
>>> test_value("O=c1c2c(nc3[nH]ccn13)CCCC2")
"> 10 µM (inactive)"
>>> test_value("CC(=O)SC(C[N+](=O)[O-])c1ccccc1 (stereo unspecified)")
"2.22 µM (inactive)"
>>> test_value("COc1cc(C(C[N+](=O)[O-])SC(C)=O)ccc1OCc1ccccc1 (stereo unspecified)")
"1.79 µM (inactive)"
>>> test_value("CC1(C)CCC[C@]2(C)[C@H]3[C@H](C#N)c4cc(O)c(O)cc4O[C@@]3(C)CC[C@@H]12")
"> 10 µM (inactive)"

Read the next record carefully.
Ask | Requested read-out: GI50. Entry: COc1ccc2c3c([nH]c2c1[N+](=O)[O-])C(C)N(Cc1ccc([N+](=O)[O-])cc1)CC3 (stereo unspecified)
Reply | 5.5 µM (inactive)
